In this section, each of the compounds is paired with its reported IC50.
Target protein (sequence): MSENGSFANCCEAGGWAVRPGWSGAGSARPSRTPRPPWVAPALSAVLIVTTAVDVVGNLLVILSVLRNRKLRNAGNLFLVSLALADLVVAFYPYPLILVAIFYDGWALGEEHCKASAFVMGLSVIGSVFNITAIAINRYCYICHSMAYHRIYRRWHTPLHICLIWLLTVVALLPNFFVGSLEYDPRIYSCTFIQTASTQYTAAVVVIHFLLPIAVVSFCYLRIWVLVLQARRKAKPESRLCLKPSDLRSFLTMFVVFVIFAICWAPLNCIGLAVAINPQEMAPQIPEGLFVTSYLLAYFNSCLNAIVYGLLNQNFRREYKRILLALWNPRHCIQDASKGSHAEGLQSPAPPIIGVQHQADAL
readout name: IC50

• COc1ccc2c(c1)C(C1CCN(C(=O)C(F)(F)F)CC1)CC2 (single isomer, unassigned; (+)) = 10 to 100 nM
• COc1ccc2c(c1)C(C1CCN(C(=O)c3occc3C)CC1)CC2 (stereo not drawn) = < 10 nM
• COc1cc2c(cc1F)CCC2C1CCN(C(=O)C2CC2)CC1 (stereo not drawn) = < 10 nM
• COc1ccc2c(c1)C(C1CCN(C(=O)c3sccc3C)CC1)CC2 (stereo not drawn) = < 10 nM
• COc1ccc2c(c1)C(C1CCN(C(=O)C3=CCCC3)CC1)CC2 (stereo not drawn) = < 10 nM
• COc1ccc2c(c1)C(C1CCN(C(=O)c3ccco3)CC1)CC2 (stereo not drawn) = < 10 nM
• CCNC(=O)N1CCC(C2CCc3ccc(OCCCc4cccc(OC)c4)cc32)CC1 (stereo not drawn) = 10 to 100 nM
• COCC(=O)N1CCC(C2CCc3ccc(OC)cc32)CC1 (single isomer, unassigned; (+)) = 100 to 250 nM
• COc1ccc2c(c1)C(C1CCN(C(=O)c3sccc3Cl)CC1)CC2 (stereo not drawn) = < 10 nM
• CCCC(=O)N1CCC(C2CCc3ccc(OC)cc32)CC1 (single isomer, unassigned; (-)) = < 10 nM
• CC(=O)NCCc1c(Cc2ccccc2)[nH]c2ccccc12 [Luzindole] = 100 to 250 nM
• CCNC(=O)N1CCC(C2CCc3ccc(OC)cc32)CC1 (single isomer, unassigned; (+)) = 10 to 100 nM
• COc1ccc2c(c1)C(C1CCN(C(=O)c3ccoc3)CC1)CC2 (stereo not drawn) = < 10 nM
• COc1ccc2c(c1)C(C1CCN(C(=O)CSC)CC1)CC2 (stereo not drawn) = < 10 nM
• COc1ccc2c(c1)C(C1CCN(C(=O)c3csnn3)CC1)CC2 (stereo not drawn) = < 10 nM
• CCNC(=O)N1CCC(C2CCc3cc(F)c(OC)cc32)CC1 (stereo not drawn) = 10 to 100 nM
• O=C(C1CC1)N1CCC(C2CCc3ccc(OC(F)(F)F)cc32)CC1 (stereo not drawn) = 10 to 100 nM
• COc1ccc2c(c1)C(C1CCN(C=O)CC1)CC2 (single isomer, unassigned; (-)) = < 10 nM
• COc1ccc2c(c1)C(C1CCN(C(=O)c3ccc[nH]3)CC1)CC2 (stereo not drawn) = < 10 nM
• CCC(C)(C)C(=O)N1CCC(C2CCc3ccc(OC)cc32)CC1 (stereo not drawn) = 10 to 100 nM
• CCC(=O)N1CCC(C2CCc3ccc(OC)cc32)CC1 (single isomer, unassigned; (-)) = < 10 nM
• COc1ccc2c(c1)C(C1CCN(C(=O)C(F)(F)F)CC1)CC2 (single isomer, unassigned; (-)) = < 10 nM
• CCNC(=O)N1CCC(C2CCCc3ccc(OC)cc32)CC1 (stereo not drawn) = 10 to 100 nM
• COc1ccc2c(c1)C(C1CCN(C(=O)C(C)C)CC1)CC2 (stereo not drawn) = < 10 nM
• CCc1ccc2c(c1)C(C1CCN(C(=O)C(C)C)CC1)CC2 (stereo not drawn) = < 10 nM
• COc1ccc2c(c1)C(C1CCN(C(=O)N(C)C)CC1)CC2 (single isomer, unassigned; (-)) = < 10 nM
• COc1ccc2c(c1)C(C1CCN(C=O)CC1)CC2 (single isomer, unassigned; (+)) = 10 to 100 nM
• CNC(=O)N1CCC(C2CCc3ccc(OC)cc32)CC1 (stereo not drawn) = < 10 nM
• COc1ccc2c(c1)C(C1CCN(C(=O)C3CC3)CC1)CC2 (single isomer, unassigned; (-)) = < 10 nM
• COc1ccc2c(c1)C(C1CCN(C(=O)C3CC3)CC1)CC2 (single isomer, unassigned; (+)) = < 10 nM
• CNC(=O)N1CCC(C2CCc3ccc(F)cc32)CC1 (stereo not drawn) = 10 to 100 nM
• CCNC(=O)N1CCC(C2CCc3ccc(OC(F)(F)F)cc32)CC1 (stereo not drawn) = 10 to 100 nM
• COc1ccc2c(c1)C(C1CCN(C(=O)c3ccsc3)CC1)CC2 (stereo not drawn) = < 10 nM
